B1: CPEB3 Ribozyme (parent)
chain: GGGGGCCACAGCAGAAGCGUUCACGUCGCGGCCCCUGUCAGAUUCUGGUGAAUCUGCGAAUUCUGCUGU

Variants of: B1
Test: self-cleavage, relative activity (ratio to wild type); higher = more cleavage; co-transcriptional
Binning scheme for self-cleavage: lower range = under 0.2, middle range = from 0.2 up to 0.8, upper range = 0.8 and over

A10U C63G :: middle range
G31U C54U :: middle range
C22U G28U :: lower range
C35G U38G :: lower range
A15C U64C :: upper range
G37A U38A :: middle range
G11A U21C :: middle range
G48C U61G :: upper range
C18A C24A :: lower range
A40U C66U :: middle range
C66A U67A :: upper range
G56C C66U :: middle range
U38A U69A :: upper range
C18G G41U :: lower range
C45G U55G :: middle range
A40U C63U :: middle range
C7G G19U :: lower range
A13G A59G :: upper range
U20A G28C :: lower range
G14A C63A :: upper range
G14C U67G :: middle range
G1A C27U :: lower range
G2U G5U :: lower range
C34U A59G :: upper range
G19C C29G :: lower range
C12U G50A :: upper range
U43G A52C :: upper range
C18A C29G :: lower range
A52C C66U :: upper range
G19C G47U :: lower range
G37C G56U :: middle range
C18A C45A :: lower range
G17C A23G :: lower range
U36C G56C :: middle range
